Provide the recorded self-aminoacylation for the entries that follow.
- System: biotinyl-Phe-oxazolone
- PROCEDURE SUMMARY: self-aminoacylation, catalytic enhancement (BFO) (fold over background); higher = more active; k-Seq, kA / k0A0; sequences stand for … in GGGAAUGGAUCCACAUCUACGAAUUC…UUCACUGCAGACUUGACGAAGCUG
This sample holds only a part of the variants without activity.

# SEQUENCE DATA, RECORDED MEASUREMENT
rows = [
    ("AUUACCCUGGUCAUCUAGUCA [Fam2.1 aminoacylation ribozyme variant]", 0.712),
]

Quick one: give me self-aminoacylation for each item below, same order please.
1. CUAGUUCAAACAAUCGGUCAG [Fam1A.1 aminoacylation ribozyme variant]
2. CUACUUCAAUCAAUCGGUCGG [Fam1A.1 aminoacylation ribozyme variant]

stdout:
[2.03, 15.8]

# map each sequence to its self-aminoacylation
1. CCACACUUCAAGUAAUCCGUC [Fam1B.1 aminoacylation ribozyme variant]
2. AUUAGCCUGGUCAACGAGUGA [Fam2.1 aminoacylation ribozyme variant]
3. AUUCACCUAGGUCAUAGCGUG [Fam2.2 aminoacylation ribozyme variant]
4. CUACUUCGAACAAUCGGCCUG [Fam1A.1 aminoacylation ribozyme variant]

stdout:
0.9
18.2
17.1
4.78

Parameter requested: self-aminoacylation. Apply to each item below.
1. AAGGUUGCUAAUAUUCGCAAG [Fam3.1 aminoacylation ribozyme variant]
2. CUACUGCAAACAGUCGGUCUG [Fam1A.1 aminoacylation ribozyme variant]
3. CUACUUCAGACAAUCGGCCUG [Fam1A.1 aminoacylation ribozyme variant]
4. AUUACACUGGUAAUCGAGUGA [Fam2.1 aminoacylation ribozyme variant]
5. AUUCACUUAGGUCAUCGGUUG [Fam2.2 aminoacylation ribozyme variant]

stdout:
1.6
2.04
3.82
30.4
0.69

Need self-aminoacylation for each of these sequences.
1. AUUAGCCUGGUCAUCGAAUGA [Fam2.1 aminoacylation ribozyme variant]
2. CUUCUUCAAACAAUCGGUAUG [Fam1A.1 aminoacylation ribozyme variant]

stdout:
[1.23, 9.62]

Provide each entry's self-aminoacylation from the list below.
1. AUUACCCUAGUCAUCGAGUAA [Fam2.1 aminoacylation ribozyme variant]
2. AUUCACCUAGUUCAUCGCGUG [Fam2.2 aminoacylation ribozyme variant]
3. CCACUUCCAACAAUCGGUCUG [Fam1A.1 aminoacylation ribozyme variant]
4. AUUCAUCGAGGUCAUCGGGUG [Fam2.2 aminoacylation ribozyme variant]

stdout:
1: 0.698; 2: 35.7; 3: 1.13; 4: 83.3

----------
- System: biotinyl-Trp-oxazolone
- PROCEDURE SUMMARY: self-aminoacylation, catalytic enhancement (BWO) (fold over background); higher = more active; k-Seq, kA / k0A0; sequences stand for … in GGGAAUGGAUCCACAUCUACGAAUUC…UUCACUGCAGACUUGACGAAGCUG
This sample holds only a part of the variants without activity.
Recorded self-aminoacylation determines the group label, using lower (below 0.7), middle (0.7 to below 4), upper (4 or more)

Please review the entries below; each comes with its answer.
# SEQUENCE DATA, DISCRETE LABEL
measured = [
    ("AAGUCUGCUAAUAGACGCAAG [Fam3.1 aminoacylation ribozyme variant]", "lower"),
    ("CUACUUCAAACAAUCCAUCUG [Fam1A.1 aminoacylation ribozyme variant]", "lower"),
    ("AUUUUUGCUAAUAGUCGCAAG [Fam3.1 aminoacylation ribozyme variant]", "middle"),
]

stdin: Band for AUCACCCUGGUCAUCGAGUGA [Fam2.1 aminoacylation ribozyme variant] ?
stdout: upper

stdin: GET /class?item= AUACUUCAUACAAUCGGUCUG [Fam1A.1 aminoacylation ribozyme variant]
stdout: middle

stdin: Category of AAGCACCUAGGUCAUCGGGUG [Fam2.2 aminoacylation ribozyme variant] , please.
stdout: upper

stdin: Looking at AUUACCCUGGUGAUCGCGUGA [Fam2.1 aminoacylation ribozyme variant] , which class would you pick?
stdout: upper

stdin: Which self-aminoacylation category applies to CCACACUAGAAGCAAUCGGUC [Fam1B.1 aminoacylation ribozyme variant] here?
stdout: middle

----------
- Test system: biotinyl-Leu-oxazolone
- PROCEDURE SUMMARY: self-aminoacylation, catalytic enhancement (BLO) (fold over background); higher = more active; k-Seq, kA / k0A0; sequences stand for … in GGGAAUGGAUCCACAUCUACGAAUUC…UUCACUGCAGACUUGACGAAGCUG
This sample holds only a part of the variants without activity.
Dear colleague, classification is by self-aminoacylation, with ranges listed here: low range: < 0.9; mid range: ≥ 0.9 and < 3; high range: ≥ 3

Sample answers from the record:
# SEQUENCE DATA, DISCRETE LABEL
data = [
    ("AAGUUAGCUAAUAGUCGCAGG [Fam3.1 aminoacylation ribozyme variant]", "mid range"),
    ("AUUACCCUGGUCAUCGGCUGA [Fam2.1 aminoacylation ribozyme variant]", "mid range"),
    ("CCAAACUUUAAGCAAUCGGUC [Fam1B.1 aminoacylation ribozyme variant]", "low range"),
    ("CCACACUUCUAGCACUCGGUC [Fam1B.1 aminoacylation ribozyme variant]", "low range"),
    ("AAGUGUGCUAAUAGUCGCACG [Fam3.1 aminoacylation ribozyme variant]", "mid range"),
    ("AUUAUCCUGGUCAUCGACUGA [Fam2.1 aminoacylation ribozyme variant]", "mid range"),
]

stdin: Bin? AAGUUUGCCAGUAGUCGCAAG [Fam3.1 aminoacylation ribozyme variant]
stdout: mid range

stdin: Form field 'band' for AUUAACCUAGAUCAUCGGGUG [Fam2.2 aminoacylation ribozyme variant]
stdout: mid range

stdin: Form: Item = CCACACUUCAAGCUACCGGUC [Fam1B.1 aminoacylation ribozyme variant] ; Class = ?
stdout: mid range

stdin: Which self-aminoacylation category applies to AAGUUUGCUAAUAGUCGCACC [Fam3.1 aminoacylation ribozyme variant] here?
stdout: low range

stdin: Band for AUUCAUCUAGGUCAUCGGGAG [Fam2.2 aminoacylation ribozyme variant] ?
stdout: low range

stdin: Could you place AUAACCCUGGUCAACGAGUGA [Fam2.1 aminoacylation ribozyme variant] in its proper category? Many thanks.
stdout: high range

stdin: Which category fits this record: AUUCACCUUGGUCCUCGGGUG [Fam2.2 aminoacylation ribozyme variant]
stdout: high range

stdin: Quick check: band for AUUACCCUGGUCAUGGAGAGA [Fam2.1 aminoacylation ribozyme variant]
stdout: mid range

stdin: # bin lookup: classify AUUACCCCGGUCGUCGAGUGA [Fam2.1 aminoacylation ribozyme variant] by its self-aminoacylation
stdout: mid range

stdin: Class (by measured self-aminoacylation) for AUUACCCUGGUCACGGAGUGA [Fam2.1 aminoacylation ribozyme variant]
stdout: high range

----------
Assign self-aminoacylation to each entry below.
- Tested on: biotinyl-Phe-oxazolone
- PROCEDURE SUMMARY: self-aminoacylation, catalytic enhancement (BFO) (fold over background); higher = more active; k-Seq, kA / k0A0; sequences stand for … in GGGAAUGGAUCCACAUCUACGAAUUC…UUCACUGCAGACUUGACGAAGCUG
This sample holds only a part of the variants without activity.

Some solved cases for reference:
# SEQUENCE DATA, self-aminoacylation
data = [
    ("CUACUUCAUACAAUCGGUCUU [Fam1A.1 aminoacylation ribozyme variant]", 0.932),
    ("AUUACCCUGGUCAUUGAGCGA [Fam2.1 aminoacylation ribozyme variant]", 4.43),
    ("AUCACCCUGGUCAUCGAGUGU [Fam2.1 aminoacylation ribozyme variant]", 94.9),
    ("CUUCACCUGGGUCAUCGGGUG [Fam2.2 aminoacylation ribozyme variant]", 25),
]

Could you tell me self-aminoacylation for each of these sequences? They are listed below.
1. AAGUUAGCUAAUAAUCGCAAG [Fam3.1 aminoacylation ribozyme variant]
2. CAGCUUCAAACAAUCGGUCUG [Fam1A.1 aminoacylation ribozyme variant]
3. CCACUCUUCACGCAAUCGGUC [Fam1B.1 aminoacylation ribozyme variant]

stdout:
2
52
0.819

Please state self-aminoacylation for every sequence in the list that follows.
1. AAGUUUGCUAAUACUCGCGAG [Fam3.1 aminoacylation ribozyme variant]
2. AUUACGCUGGUCAUCGUGUGA [Fam2.1 aminoacylation ribozyme variant]
3. CUACUUCACGCAAUCGGUCUG [Fam1A.1 aminoacylation ribozyme variant]
4. CUACUUCAAACAAUCGCCCUG [Fam1A.1 aminoacylation ribozyme variant]
5. CUACUUCAAACAAUCGGAAUG [Fam1A.1 aminoacylation ribozyme variant]

stdout:
1. 5.73
2. 15.4
3. 0.929
4. 0.818
5. 7.74

Report self-aminoacylation for each item below.
1. AUUCAACUAGGUCAUCGGAUG [Fam2.2 aminoacylation ribozyme variant]
2. AUUCUCCUAGGUCAUCGGGUC [Fam2.2 aminoacylation ribozyme variant]
3. AUUCACCUAGGUCAUCUCGUG [Fam2.2 aminoacylation ribozyme variant]
4. AUUACCGUGGUAAUCGAGUGA [Fam2.1 aminoacylation ribozyme variant]
5. CUAUUUCAAACAAUCGGUUUG [Fam1A.1 aminoacylation ribozyme variant]
6. AUUAUCCUGGGCAUCGAGUGA [Fam2.1 aminoacylation ribozyme variant]

stdout:
1: 0.801; 2: 4.09; 3: 5.77; 4: 43.2; 5: 4.11; 6: 36.3

The reported numbers originate from the supplement of paper PMC9233669.
